assay: solubility pre-screen in an aqueous, acidic milieu; assay type: physicochemical; further: test concentration or dose not given here
Where a SMILES comes first, the peptide text is derived from it.

molecule: CSCC[C@H](NC(=O)[C@H](CO)NC(=O)[C@@H](N)C(C)C)C(=O)N[C@@H](CCC(=O)O)C(=O)N[C@@H](Cc1ccc(O)cc1)C(=O)N[C@@H](CC(=O)O)C(=O)N[C@@H](CC(C)C)C(=O)N[C@@H](C)C(=O)N[C@@H](Cc1ccc(O)cc1)C(=O)N[C@@H](CCCCN)C(=O)N[C@@H](CC(C)C)C(=O)NCC(=O)N[C@@H](CC(=O)O)C(=O)N[C@@H](CC(C)C)C(=O)N[C@@H](Cc1c[nH]cn1)C(=O)O [HDM40A] (H-VSMEYDLAYKLGDLH-OH; N-terminus and C-terminus assumed)
Solubility test: YES
//
molecule: CC(C)[C@H](NC(=O)[C@H](Cc1ccc(O)cc1)NC(=O)[C@@H](N)CCCNC(=N)N)C(=O)N[C@@H](C)C(=O)N[C@@H](CCCNC(=N)N)C(=O)N[C@@H](CCC(=O)O)C(=O)N[C@@H](CCC(N)=O)C(=O)N[C@@H](CO)C(=O)N[C@@H](CS)C(=O)N[C@@H](CCCNC(=N)N)C(=O)N[C@@H](CCCNC(=N)N)C(=O)N1CCC[C@H]1C(=O)N[C@@H](CC(N)=O)C(=O)O [HDM06] (H-RYVAREQSCRRPN-OH; N-terminus and C-terminus assumed)
Solubility test: YES
